measured.on: CatSper (Homo sapiens, UniProt Q7RTX7+Q86XQ3+Q8NEC5+Q96P56)
protocol.details: Human sperm calcium influx assay, activation
Assay type: cell-based
metric: EC50 (nM)
Entry rule: numbers only, all in nM.

[Q] GET /values?readout=EC50&system=CatSper (Homo sapiens, UniProt Q7RTX7+Q86XQ3+Q8NEC5+Q96P56)&item= "C[C@]12CC[C@H]3[C@@H](CCC4=CC(=O)CC[C@@]43C)[C@@H]1CC[C@@H]2O"
[A] 219

---

measured.on: CatSper (Homo sapiens, UniProt Q7RTX7+Q86XQ3+Q8NEC5+Q96P56)
protocol.details: Human sperm calcium influx assay, activation
Format: cell-based
condition.label: human sperm; mean ±SD
Form field: pEC50, calcium influx, Steroid Alone (one value per entry).
# respond with the number and nothing more

Example results:
compound	pEC50, calcium influx, Steroid Alone
CC(=O)[C@H]1CC[C@H]2[C@@H]3CC[C@@H]4C[C@H](O)CC[C@]4(C)[C@H]3CC[C@]12C	6.26
CC(=O)[C@H]1CC[C@H]2[C@@H]3C[C@@H](O)C4=CC(=O)CC[C@]4(C)[C@H]3CC[C@]12C [compound 21, 6β-hydroxyprogesterone]	6.91
C[C@@H]1CC2=CC(=O)CC[C@@H]2[C@@H]2[C@@H]1[C@@H]1CC[C@H](O)[C@@]1(C)C[C@@H]2C	6.06

[Q] Dear colleague, I am looking for the recorded pEC50, calcium influx, Steroid Alone of the following compound: "CC(=O)[C@H]1CC[C@H]2[C@@H]3CC[C@H]4C[C@H](O)CC[C@]4(C)[C@H]3CC[C@]12C"
[A] 6.56

[Q] Dear colleague, I am looking for the recorded pEC50, calcium influx, Steroid Alone of the following compound: "C[C@]12CC[C@@H](O)C[C@@H]1CC[C@@H]1[C@@H]2CC[C@]2(C)[C@@H](C(=O)CO)CC[C@@H]12"
[A] 6.05

[Q] Dear colleague, I am looking for the recorded pEC50, calcium influx, Steroid Alone of the following compound: "C[C@H]1C[C@]2(C)[C@@H](O)CC[C@H]2[C@H]2[C@H]1[C@H]1CCC(=O)C=C1C[C@@H]2C"
[A] 5.41

[Q] Dear colleague, I am looking for the recorded pEC50, calcium influx, Steroid Alone of the following compound: CC(=O)[C@@]1(O)CC[C@H]2[C@@H]3C[C@H](C)C4=CC(=O)CC[C@]4(C)[C@H]3CC[C@@]21C [compound 30, 17α-hydroxy-6α-methylprogesterone]
[A] 6.33

[Q] Dear colleague, I am looking for the recorded pEC50, calcium influx, Steroid Alone of the following compound: CC(=O)[C@H]1CC[C@H]2[C@@H]3CCC4=CC(=O)CC[C@]4(C)[C@H]3[C@H](O)C[C@]12C [compound 24, 11α-hydroxyprogesterone]
[A] 6.90

[Q] Dear colleague, I am looking for the recorded pEC50, calcium influx, Steroid Alone of the following compound: CC(=O)[C@H]1[C@H](O)C[C@H]2[C@@H]3CCC4=CC(=O)CC[C@]4(C)[C@H]3CC[C@@]21C [compound 28, 16α-hydroxyprogesterone]
[A] 6.77

[Q] Dear colleague, I am looking for the recorded pEC50, calcium influx, Steroid Alone of the following compound: "CC(=O)[C@H]1CC[C@H]2[C@@H]3C[C@@H](C)C4=CC(=O)CC[C@]4(C)[C@H]3CC[C@]12C"
[A] 6.58

[Q] Dear colleague, I am looking for the recorded pEC50, calcium influx, Steroid Alone of the following compound: "CC(=O)[C@H]1CC[C@H]2[C@@H]3CC[C@@H]4C[C@@H](O)CC[C@]4(C)[C@H]3CC[C@]12C"
[A] 6.89
